In this section, each of the compounds is paired with its reported normalized growth.
- test-details: chemical genetic growth profiling, strain panel (AID 1159580);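 note: tested at 20 µM; growth read once vehicle control cultures reached saturation at 30 °C; 1 = growth at the plate median or of vehicle wells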
- condition-set: S. cerevisiae deletion strains, growth OD, locus YHR079C, strain IRE1 (second series), stronger effect = lower value
About 2,000 (36%) of roughly 5,500 compounds were called active. Not shown: some 18% with an inconclusive outcome. The list shows a part of the results.
Keep it simple and answer with nothing but the number.

Examples with answers:
COc1ccc(-c2coc3c(OC)c(OC)cc(O)c3c2=O)cc1    0.978
CC(=C(CCOP(=O)(O)O)SC(=O)c1ccccc1)N(C=O)Cc1cnc(C)nc1N    1.01
COc1ccc(-c2coc3c(OC)c(OC)cc(OC)c3c2=O)cc1    0.993
Cn1cc[nH]c1=S    0.971

Ask: Which measured normalized growth value corresponds to CCCCOc1ccc(CC(=O)NO)cc1 ?
Reply: 1.01

Ask: I have this compound here, COc1ccc(-c2coc3c(OC)c(OC)ccc3c2=O)cc1 , and I need its recorded normalized growth.
Reply: 1.01

====

- test-details: chemical genetic growth profiling, strain panel (AID 1159580)
- condition-set: S. cerevisiae deletion strains, growth OD, locus YPL240C, strain hsp82
In all, about 5,500 compounds went through this assay and about 2,000 (36%) were called active. Another 18% or so got no clear call; they are omitted. Cut-off read from the data, not from the text of the source: active = normalized growth mostly below about 0.91 (no sharp cut-off); inconclusive = no clear call, values can overlap the other calls; inactive = mostly above about 0.92. The list shows a part of the results.
// allowed return values: 1 (yes) for active, 0 (no) for inactive

Recorded results for 10 compounds are shown here.
S=C=NCc1ccccc1    1 (yes)
Cc1cc(=O)c2c(O)cc(O)c(C)c2o1    0 (no)
COc1ccc2cc1Oc1ccc(cc1)C[C@H]1c3c(cc4c(c3Oc3cc5c(cc3OC)CCN(C)[C@@H]5C2)OCO4)CCN1C    0 (no)
COc1cc(O)c2c(=O)cc(C)oc2c1CC=C(C)C    0 (no)
O=c1ccc2ccccc2o1    0 (no)
COc1cc(O)c(C(=O)c2ccccc2)cc1O    0 (no)
O=C(O)c1cc(=O)c2ccc(Cl)cc2[nH]1    0 (no)
CCCCOc1ccc(CC(=O)NO)cc1    0 (no)
COC(=O)COc1cc(Cl)c(Cl)cc1Cl    0 (no)
OCc1ccccc1O[C@@H]1O[C@H](CO)[C@@H](O)[C@H](O)[C@H]1O    0 (no)

Ask: Would you mind telling me which call this test gave COc1ccc2c(c1)C1(C)CCC(=O)CC1CC2 (centres undefined) ?
Reply: 0 (no)

====

- test-details: chemical genetic growth profiling, strain panel (AID 1159580)
- condition-set: S. cerevisiae deletion strains, growth OD, locus YPL051W, strain arl3, stronger effect = lower value
Hit rate of the full screen: of about 5,500 compounds, about 2,000 (36%) were called active. Not shown: some 18% with an inconclusive outcome. This is one part of the list.
quantity-name: normalized growth
Keep the answer to the number alone.

COC(=O)C1[C@H]2C[C@H]3c4[nH]c5ccccc5c4CCN3C[C@@H]2CC[C@@H]1O (stereo not given in full)    0.961
OCc1ccccc1O[C@@H]1O[C@H](CO)[C@@H](O)[C@H](O)[C@H]1O    0.98

Ask: Please give the measured normalized growth for this molecule: CNC1(C)C2CCC(C2)C1(C)C (stereo not given)
Reply: 0.999

Ask: // query normalized growth value for entry COc1ccc([C@@H]2CC(=O)c3c(O)cc(O)cc3O2)cc1O
Reply: 0.967

Ask: So what's the measured normalized growth for this one? COc1ccc(C2CC(=O)c3ccc(OC)cc3O2)cc1 (stereo not given)
Reply: 0.887

====

Recorded normalized growth values for a group of compounds are listed next.
- test-details: chemical genetic growth profiling, strain panel (AID 1159580)
- condition-set: S. cerevisiae deletion strains, growth OD, locus YDL017W, strain CDC7, stronger effect = lower value
Out of some 5,500 compounds screened, about 2,000 (36%) were called active. About 18% were inconclusive and are not listed. Some of the results follow.
Please reply with the value in numeric form only.

Completed entries (count: 5):
N#C/C(=C\c1ccccc1Sc1ccc(Cl)cc1)S(=O)(=O)c1ccccn1    0.982
O=C(Nc1cc(Cl)cc(Cl)c1)Nc1cc(-c2ccco2)[nH]n1    0.95
CC(C)(C)C1=NN(c2nc3ccc(Cl)cc3s2)C(=O)C1    0.0926
Cn1cncc1S(=O)(=O)/C(C#N)=C/c1ccccc1Sc1ccc(Cl)cc1    0.976
O=C(NCc1ccco1)c1ccc(Oc2cc(Cl)cc(Cl)c2)o1    0.969

Ask: Quick one: normalized growth for COc1ccc(NC(=O)O/N=C(/N)c2ccc(Oc3c(Cl)cncc3Cl)cc2)cc1 ?
Reply: 0.98

Ask: Tell me the measured normalized growth of Cc1oc2c(F)c(F)c(F)c(F)c2c1C(=O)ONC(N)c1ccc(OS(=O)(=O)N(C)C)cc1 (centres undefined) , please.
Reply: 0.973

Ask: What does the data say about its normalized growth? Entry: NC(N)=Nc1nc(-c2cc(Cl)sc2Cl)cs1
Reply: 0.993

Ask: Fill in the blank: the reported normalized growth of Cn1c([N+](=O)[O-])cnc1/C=C(\C#N)C(=O)Nc1ccc(F)cc1 is ____.
Reply: 0.541

====

- test-details: chemical genetic growth profiling, strain panel (AID 1159580)
- condition-set: S. cerevisiae deletion strains, growth OD, locus YMR001C, strain CDC5, stronger effect = lower value
The whole screen tested about 5,500 compounds, of which about 2,000 (36%) were called active. About 18% were inconclusive and are not listed. The list shows a part of the results.
quantity-name: normalized growth
Would you mind answering with just the numeric figure?

CCC(C)c1ccccc1NC(=O)c1cc2cccc([N+](=O)[O-])c2[nH]1 (centres undefined)    0.917

Ask: Reported normalized growth for O=C(Nc1cc(Cl)cc(Cl)c1)Nc1cc(-c2cccs2)[nH]n1 : what is it?
Reply: 0.965

Ask: Fill in: normalized growth of NC(N)=Nc1nc(-c2cc(Cl)sc2Cl)cs1 is ___
Reply: 0.993

Ask: Query: normalized growth; subject: O=C(Nc1cc(Cl)cc(Cl)c1)Nc1cc(-c2ccco2)[nH]n1
Reply: 0.935

====

- test-details: chemical genetic growth profiling, strain panel (AID 1159580);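 note: tested at 20 µM; growth read once vehicle control cultures reached saturation at 30 °C; 1 = growth at the plate median or of vehicle wells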
- condition-set: S. cerevisiae deletion strains, growth OD, locus YGR078C, strain PAC10
Screen size: about 5,500 compounds; about 2,000 (36%) were called active. Another 18% or so got no clear call; they are omitted. Rule as the data show it: active = normalized growth mostly below about 0.91 (no sharp cut-off); inconclusive = no clear call, values can overlap the other calls; inactive = mostly above about 0.92. The list shows a part of the results.
Use one of these outcomes when replying: active, inactive

Field: example entries. Status: answers known.
CC(=O)O[C@]1(C(C)=O)CCC2C3C=C(C)C4=CC(=O)CCC4(C)C3CCC21C (stereo partly specified)    active
Cc1cc(=O)n2c(-c3ccc(Cl)cc3)csc2n1    inactive
CCCCCCCCCCCCC[N+](C)(C)Cc1ccccc1    active
CCCCCCCCCCCCC/C=C/[C@@H](O)[C@@H](N)CO    inactive
COc1ccc2c(c1)OC[C@@H](Cc1ccc(OC)c(OC)c1)[C@@H]2O    inactive
CC(=O)O[C@H]1C(=O)[C@@]2(C)C([C@H](OC(=O)c3ccccc3)[C@]3(O)C[C@H](OC(=O)[C@H](O)[C@@H](NC(=O)c4ccccc4)c4ccccc4)C(C)=C1C3(C)C)[C@]1(OC(C)=O)CO[C@@H]1C[C@@H]2O (stereo partly specified)    inactive
Cc1ccc2c(c1)CC[C@H]1CC(=O)CC[C@]21C    inactive
Cc1cc(=O)c2c(O)c(C)c(O)cc2o1    inactive

Ask: Record request — test call for CCC1(c2ccc(N)cc2)CCC(=O)NC1=O (stereo unspecified)
Reply: inactive

Ask: In this assay, the call recorded for CNC1(C)C2CCC(C2)C1(C)C (stereo unspecified) was what?
Reply: inactive

Ask: Given CC1(C)/C(=N/OC(=O)c2cccc(C(F)(F)F)c2)[C@]2(C)CCC1C2 , state the outcome it received in this test.
Reply: inactive

====

- test-details: chemical genetic growth profiling, strain panel (AID 1159580);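 note: tested at 20 µM; growth read once vehicle control cultures reached saturation at 30 °C; 1 = growth at the plate median or of vehicle wells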
- condition-set: S. cerevisiae deletion strains, growth OD, locus YLL041C, strain sdh2, stronger effect = lower value
Screen size: about 5,500 compounds; about 2,000 (36%) were called active. Roughly 18% stayed inconclusive and do not appear here. This is one part of the list.
Flag rule - normalized growth less than 1 flags Fulfilled; the remaining entries get Not fulfilled.

Before answering, review these 2 worked examples.
O=C(O)c1cc(=O)c2ccc(Cl)cc2[nH]1    Not fulfilled
CCCCOc1ccc(OCCCN2CCOCC2)cc1    Fulfilled

Alright, here's another molecule for you.
Ask: # strict comparison: is reported normalized growth < 1? input = Cc1cc(C(C)(C)CC(C)(C)C)ccc1OCCOCC[N+](C)(C)Cc1ccccc1
Reply: Fulfilled

====

- test-details: chemical genetic growth profiling, strain panel (AID 1159580);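 note: tested at 20 µM; growth read once vehicle control cultures reached saturation at 30 °C; 1 = growth at the plate median or of vehicle wells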
- condition-set: S. cerevisiae deletion strains, growth OD, locus YGL227W, strain vid30, stronger effect = lower value
The whole screen tested about 5,500 compounds, of which about 2,000 (36%) were called active. Roughly 18% stayed inconclusive and do not appear here. Some of the results follow.
# normalized growth listing for each entry below
Give the value as a plain number.

Ask: // returns reported normalized growth for input COc1ccc2c(c1)C1(C)CCC(=O)CC1CC2 (stereo unspecified)
Reply: 1.01
